# Tested on: Trichomonas vaginalis
# method.notes: Antitrichomonas activity against metronidazole-resistant trophozoite stage of Trichomonas vaginalis ATCC 50143 assessed as cell viability under anaerobic condition after 48 hrs by trypan blue exclusion assay
# Format: functional
# condition.label: ATCC 50143, 48 h
I'd be grateful if you could share measured MIC for these entries.
One number for each entry, in µM.

Below are worked cases with known answers.
C=CCN1CCN(C(=S)SSC(=S)N2CCN(CC=C)CC2)CC1
62
CCOC(=O)N1CCN(C(=S)SSC(=S)N2CCN(C(=O)OCC)CC2)CC1
13.3

Batch of 2 molecules: report MIC for each.
1. CN(C)C(=S)SSC(=S)N(C)C [THIRAM]
2. N#CCCCN1CCN(C(=S)SSC(=S)N2CCN(CCCC#N)CC2)CC1

Result:
12.9
6.8

All figures here come from ChEMBL document CHEMBL3792366.
